- Study Target: human TrkA receptor (Homo sapiens (Human))
- Experiment: DiscoverX PathHunter TrkA functional assay (NGF-stimulated U2OS cells)
- Applied Conditions: U2OS cells expressing human TrkA-PK, Shc1-EA and p75NTR; compound 1 h, then NGF at ~80% of maximal response for 3 h; luminescence
Parameter Measured: IC50 (nM)

(A) C[C@@H](CO)NC(=O)c1cnc(-c2ccccc2)c(NC(=O)c2cc(-c3ccn(C)n3)c(C(F)(F)F)cc2F)c1
(B) CS(=O)(=O)N1CCc2nc(-c3ccccc3)c(NC(=O)c3cc(-c4ncccn4)c(C(F)(F)F)cc3F)cc2C1
(C) Cc1cc(-c2ccccc2NC(=O)c2cc(-n3nc(C)cc3C)ccc2Cl)on1
Order the 3 compounds from highest to lowest IC50. Rank the items, then write their labels in that order.
C, B, A

(I) Cn1ccc(-c2cc(C(=O)Nc3cnc(CNC(=O)Cn4cncn4)nc3-c3ccccc3)c(F)cc2C(F)(F)F)n1
(II) CN1CCOC(C(=O)NCc2ccc(NC(=O)c3cc(-c4ccn(C)n4)c(C(F)(F)F)cc3F)c(-c3ccccc3)n2)C1 (single isomer, unassigned)
Thinking about recorded IC50 values, which is higher, I or II ? # answer = label of selected item
II
(II: 1.8 nM, I: 0.4 nM)

* * *

- Study Target: human TrkA receptor (Homo sapiens (Human), UniProt P04629)
- Sequence (P04629 33-796): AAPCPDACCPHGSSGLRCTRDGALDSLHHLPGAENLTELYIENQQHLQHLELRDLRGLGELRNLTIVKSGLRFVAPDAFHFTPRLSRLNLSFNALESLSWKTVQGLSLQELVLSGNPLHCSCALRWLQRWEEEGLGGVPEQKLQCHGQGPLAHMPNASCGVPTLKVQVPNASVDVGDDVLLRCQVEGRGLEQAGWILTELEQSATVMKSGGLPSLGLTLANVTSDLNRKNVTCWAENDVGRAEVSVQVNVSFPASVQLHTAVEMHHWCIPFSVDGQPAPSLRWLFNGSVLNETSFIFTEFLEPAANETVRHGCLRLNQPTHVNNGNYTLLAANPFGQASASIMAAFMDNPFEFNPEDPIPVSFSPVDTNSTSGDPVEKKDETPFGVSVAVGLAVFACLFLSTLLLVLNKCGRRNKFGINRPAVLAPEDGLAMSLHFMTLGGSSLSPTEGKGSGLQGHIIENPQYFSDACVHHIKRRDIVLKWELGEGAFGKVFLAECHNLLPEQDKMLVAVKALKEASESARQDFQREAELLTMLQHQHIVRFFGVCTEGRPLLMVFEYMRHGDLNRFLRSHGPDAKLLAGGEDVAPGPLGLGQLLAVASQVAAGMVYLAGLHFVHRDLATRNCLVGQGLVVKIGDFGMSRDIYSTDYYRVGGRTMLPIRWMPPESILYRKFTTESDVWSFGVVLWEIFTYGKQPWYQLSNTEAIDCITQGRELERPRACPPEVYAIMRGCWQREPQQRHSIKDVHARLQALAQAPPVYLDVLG
- Experiment: DiscoverX PathHunter TrkA functional assay (NGF-stimulated U2OS cells)
- Applied Conditions: U2OS cells expressing human TrkA-PK, Shc1-EA and p75NTR; compound 1 h, then NGF at ~80% of maximal response for 3 h; luminescence
pIC50: −log10 of the molar value.
Parameter Measured: pIC50

Here are 2 molecules together with their reported answers.
>  <Molecule>
Cn1ccc(-c2cc(C(=O)Nc3cnc(CC(=O)NC4CCC4)nc3-c3ccccc3)c(F)cc2C(F)(F)F)n1 [Example 113]

>  <Assay Value>
8.89

$$$$
>  <Molecule>
Cn1ccc(-c2cc(C(=O)Nc3cnc(CN4CCCCCC4=O)nc3-c3ccccc3)c(F)cc2C(F)(F)F)n1 [Example 221]

>  <Assay Value>
8.72

$$$$

(A) Cn1ccc(-c2cc(C(=O)Nc3cnc(N4CCNC4=O)nc3-c3ccccc3)c(F)cc2C(F)(F)F)n1 [Example 211]
(B) Cc1cnn(-c2ccc(C(N)=O)cc2NC(=O)c2ccc(C(F)(F)F)c(-c3ccn(C)n3)c2)c1 [Example 86]
Lab note: record which item had the higher pIC50, A or B . Lab note: record the label of whichever item you select.
A

* * *

- Study Target: UniProt:P04629
- Experiment: DiscoverX PathHunter TrkA functional assay (NGF-stimulated U2OS cells)
- Applied Conditions: U2OS cells expressing human TrkA-PK, Shc1-EA and p75NTR; compound 1 h, then NGF at ~80% of maximal response for 3 h; luminescence
pIC50: −log10 of the molar value.
Parameter Measured: pIC50

# example entries with known answers
>  <Compound>
C[C@@H](N)C(=O)NCc1ncc(NC(=O)c2cc(-c3ccn(C)n3)c(C(F)(F)F)cc2F)c(-c2ccccc2)n1

>  <Study Target>
UniProt:P04629

>  <pIC50>
9.00

$$$$
>  <Compound>
Cn1ccc(-c2cc(C(=O)Nc3cnc(C4NC(=O)NC4=O)nc3-c3ccccc3)c(F)cc2C(F)(F)F)n1 (stereo not shown)

>  <Study Target>
UniProt:P04629

>  <pIC50>
8.36

$$$$
>  <Compound>
O=C(Nc1cnc(CO)nc1-c1ccccc1)c1ccc(C(F)(F)F)c(-c2cc[nH]n2)c1 [Example 40]

>  <Study Target>
UniProt:P04629

>  <pIC50>
7.92

$$$$
>  <Compound>
Cn1ccc(-c2cc(C(=O)Nc3cc4c(nc3-c3ccccc3)CCN(CCO)C4)ccc2C(F)(F)F)n1

>  <Study Target>
UniProt:P04629

>  <pIC50>
8.12

$$$$

(A) Cn1ccc(-c2cc(C(=O)Nc3cnc(CC(N)=O)nc3-c3ccccc3)ccc2C(F)(F)F)n1
(B) Cn1ccc(-c2cc(C(=O)Nc3cnc(Cn4ccnc4)nc3-c3ccccc3)ccc2C(F)(F)F)n1
(C) Cc1ncc(NC(=O)c2ccc(C(F)(F)F)c(-c3ccn(C)n3)c2)c(-c2ccccc2)n1
Order the entries by their reported pIC50, beginning at the minimum. Quick reminder: the answer is the labels in the order asked.
A, C, B

The origin of these recorded values is patent US9815846B2.
